Attribution: paper PMC7803741

- TESTED_TARGET: GABARAP E17A (mouse, UniProt Q9DCD6 1-117, E17A)
- Sequence (Q9DCD6 whole entry E17A): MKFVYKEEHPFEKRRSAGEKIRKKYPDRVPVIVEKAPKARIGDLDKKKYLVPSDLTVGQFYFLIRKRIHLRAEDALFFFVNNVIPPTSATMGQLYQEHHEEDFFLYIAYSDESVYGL
- ASSAY_DETAILS: ITC
OBSERVED_PROPERTY: Kd (µM)

binder="ERDEEYGYECLDGKDCAS [GABAAR γ2 subunit GIM (GABARAP interacting motif, 398–415)]" recorded_measurement=6.8
